B1: Double-stranded RNA-binding protein Staufen homolog 1, residues 183 to 249; numbered along this chain, O95793 (parent)
chain: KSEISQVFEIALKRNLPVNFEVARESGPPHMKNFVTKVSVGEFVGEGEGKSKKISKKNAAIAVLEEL

Variants of: B1
Test: abundance fitness (aPCA) (normalised: wild type 0, dead -1); higher = more abundant; growth selection in yeast, the domain comes from the species named
Details: Homo sapiens
Listing of entries alongside the reported abundance fitness.
Give only the figure.

Take a look at these entries with their results.
[[record]]
variant = "Q6S"
reported = -0.255

[[record]]
variant = "F20D"
reported = -0.613

[[record]]
variant = "S51E"
reported = -0.553


// next item, abundance fitness requested
Could you tell me which abundance fitness is on file for "K13C" ?
-0.296
